The reported numbers originate from the supplement of paper PMC7411054.

Test system: WPMY1-ACTB-RAB5A
method description: lowest phenotypically active concentration; higher = less potent
assay setup: treatment time: 24 h
Structures can show the parent of a compound that is named as a salt.
# lowest phenotypically active concentration per record follows
quantity: lowest phenotypically active concentration

{"molecule": "COc1c(C=O)c(O)cc2c1C(=O)c1ccccc1C2=O", "system tested": "WPMY1-ACTB-RAB5A", "val": "9 µM"}
{"molecule": "CC(=O)O[C@@H]1C[C@H]2C(C)(C)C(=O)C=C[C@]2(C)[C@H]2CC[C@@]3(C)[C@H](c4ccoc4)OC(=O)[C@H]4O[C@]43[C@@]21C", "system tested": "WPMY1-ACTB-RAB5A", "val": "3 µM"}
{"molecule": "Oc1cccc(-c2nc(N3CCOCC3)c3oc4ncccc4c3n2)c1 [PI 103 hydrochloride]", "system tested": "WPMY1-ACTB-RAB5A", "val": "≤ 0.3 µM"}
{"molecule": "CN(C)CCCN1c2ccccc2CCc2ccc(Cl)cc21", "system tested": "WPMY1-ACTB-RAB5A", "val": "9 µM"}
{"molecule": "O=C1NC(=O)[C@@H](c2cn3c4c(cccc24)CCC3)[C@@H]1c1c[nH]c2ccccc12 [tivantinib]", "system tested": "WPMY1-ACTB-RAB5A", "val": "≤ 0.3 µM"}
{"molecule": "COc1cc(N2CCN(C)CC2)ccc1Nc1nccc(-c2cn(C)c3cnccc23)n1", "system tested": "WPMY1-ACTB-RAB5A", "val": "1 µM"}
{"molecule": "COc1cc([C@@H]2c3cc4c(cc3[C@@H](O[C@@H]3O[C@@H]5CO[C@@H](C)O[C@H]5[C@H](O)[C@H]3O)[C@H]3COC(=O)[C@H]23)OCO4)cc(OC)c1O [etoposide]", "system tested": "WPMY1-ACTB-RAB5A", "val": "1 µM"}
{"molecule": "COc1ccccc1S(=O)(=O)Nc1ccc2c(c1)CN(C)C(=O)N2", "system tested": "WPMY1-ACTB-RAB5A", "val": "3 µM"}
{"molecule": "CC/C(=C(\\CC)c1ccc(O)c(CN(CC)CC)c1)c1ccc(O)c(CN(CC)CC)c1", "system tested": "WPMY1-ACTB-RAB5A", "val": "1 µM"}

====

# phenotypically active per record follows
System: WPMY1-GM130-SQSTM1
method description: phenotypically active (imaging signature differs from DMSO and reproducible) at any of 0.3-9 uM (binary (1 = active, 0 = inactive)); higher = active
assay setup: treatment time: 24 h
quantity: phenotypically active

{"compound": "CCCCCCCCCCCCCCCC[n+]1ccn(Cc2ccccc2)c1C", "quantity": "phenotypically active", "val": "1 (active)"}
{"compound": "Cc1ccc(C(=O)Oc2ccc(C(O)CNC(C)(C)C)cc2OC(=O)c2ccc(C)cc2)cc1 (configuration not stated)", "quantity": "phenotypically active", "val": "0 (inactive)"}
{"compound": "C=C1C[C@@]23CCC4[C@@](C)(CCC[C@@]4(C)C(=O)O[C@@H]4O[C@H](CO)C(O)[C@H](O)C4O)C2CC[C@@]1(O[C@H]1O[C@H](CO)C(O)[C@H](O)[C@H]1O[C@@H]1O[C@H](CO)[C@@H](O)[C@H](O)[C@H]1O)C3 (some centres not stated) [Stevioside]", "quantity": "phenotypically active", "val": "0 (inactive)"}
{"compound": "COc1ccc(-c2ccc3cc(C(=O)O)ccc3c2)cc1C12CC3CC(CC(C3)C1)C2", "quantity": "phenotypically active", "val": "1 (active)"}
{"compound": "CC(=O)OCC(=O)[C@@]12OC3(CCCC3)O[C@@H]1C[C@H]1[C@@H]3CCC4=CC(=O)C=C[C@]4(C)[C@@]3(F)[C@@H](O)C[C@@]12C [amcinonide]", "quantity": "phenotypically active", "val": "0 (inactive)"}
{"compound": "CC[N+](CC)(CCNC(=O)C(=O)NCC[N+](CC)(CC)Cc1ccccc1Cl)Cc1ccccc1Cl", "quantity": "phenotypically active", "val": "0 (inactive)"}
{"compound": "CCOc1nc(NC(=O)Cc2cc(OC)ccc2OC)cc(N)c1C#N", "quantity": "phenotypically active", "val": "0 (inactive)"}

====

System: HepG2-GM130-SQSTM1
method description: phenotypically active (imaging signature differs from DMSO and reproducible) at any of 0.3-9 uM (binary (1 = active, 0 = inactive)); higher = active
assay setup: treatment time: 24 h

{"molecule": "CS(=O)(=O)c1cccc(CNc2nc(Nc3ccc4c(c3)CCC(=O)N4)ncc2C(F)(F)F)c1", "phenotypically active": "1 (active)"}
{"molecule": "COc1ccc(CCN(C)CCCN2CCc3cc(OC)c(OC)cc3CC2=O)cc1OC", "phenotypically active": "0 (inactive)"}
{"molecule": "CCOC(=O)c1ccc(N2NC(=O)/C(=C/c3ccc([N+](=O)[O-])o3)C2=O)cc1", "phenotypically active": "0 (inactive)"}
{"molecule": "O=C(CCCCSc1nc(-c2ccc(-c3ccccc3)cc2)cc(=O)[nH]1)NO", "phenotypically active": "1 (active)"}
{"molecule": "CC(=O)[C@H]1CC[C@H]2[C@@H]3C=CC4=CC(=O)CC[C@@]4(C)[C@@H]3CC[C@]12C", "phenotypically active": "0 (inactive)"}
{"molecule": "O=C(O)c1ccc(O)c2ncccc12", "phenotypically active": "0 (inactive)"}
{"molecule": "N=C1NC(=O)/C(=C\\c2ccc(O)cc2)S1", "phenotypically active": "0 (inactive)"}
{"molecule": "C=C(C)[C@@H]1CC[C@]2(CO)CC[C@]3(C)[C@H](CC[C@@H]4[C@@]5(C)CC[C@H](O)C(C)(C)[C@@H]5CC[C@]43C)[C@@H]12", "phenotypically active": "0 (inactive)"}
{"molecule": "CN(C)CCCC1(c2ccc(F)cc2)OCc2cc(C#N)ccc21 (centres undefined)", "phenotypically active": "0 (inactive)"}

====

Tested on: HepG2-ACTB-RAB5A
method description: phenotypically active (imaging signature differs from DMSO and reproducible) at any of 0.3-9 uM (binary (1 = active, 0 = inactive)); higher = active
assay setup: treatment time: 24 h
Outcomes: active, inactive

{"compound": "O=P(O)(O)C(O)(Cn1ccnc1)P(=O)(O)O", "group": "inactive"}
{"compound": "O=C(NCCN1CCC(n2c(=O)[nH]c3ccccc32)CC1)c1cc2cc(F)ccc2[nH]1", "group": "active"}
{"compound": "C#C[C@]1(OC(C)=O)CC[C@H]2[C@@H]3CCC4=C[C@@H](OC(C)=O)CC[C@@H]4[C@H]3CC[C@@]21C [ethynodiol diacetate]", "group": "inactive"}
{"compound": "Cc1[nH]c2ccccc2c1CCNC(=O)c1ccccc1F", "group": "inactive"}
{"compound": "CC(C)(C)c1nc(-c2cccc(NS(=O)(=O)c3c(F)cccc3F)c2F)c(-c2ccnc(N)n2)s1", "group": "active"}
{"compound": "CC(C)N(CCC(=O)c1ccc2ccccc2c1)Cc1ccccc1", "group": "inactive"}
{"compound": "CC1=Nc2ccc(Cl)cc2S(=O)(=O)N1 [diazoxide]", "group": "inactive"}
{"compound": "CC/C(=C(/c1ccccc1)c1ccc(OCCN(C)C)cc1)c1ccccc1", "group": "active"}
{"compound": "CCC1=C[C@@H]2CN(C1)Cc1c([nH]c3ccccc13)[C@@](C(=O)OC)(c1cc3c(cc1OC)N(C)[C@H]1[C@@](O)(C(=O)OC)[C@H](OC(C)=O)[C@]4(CC)C=CCN5CC[C@]31[C@@H]54)C2", "group": "active"}
{"compound": "CN/C(=C/[N+](=O)[O-])NCCSCc1csc(CN(C)C)n1", "group": "inactive"}
{"compound": "Nc1ncnc2c1ncn2[C@H]1O[C@@H](C(=O)N2CCN(CC(=O)Nc3cccc4c3CNC4=O)CC2)[C@H](O)[C@@H]1O", "group": "inactive"}
{"compound": "COc1c(O[C@@H]2O[C@H](CO)[C@@H](O)[C@H](O)[C@H]2O)cc2c(c1OC)-c1ccc(SC)c(=O)cc1[C@@H](NC(C)=O)CC2 [Thiocolchicoside]", "group": "inactive"}
{"compound": "Cn1cc(CCn2cnc(-c3cnn(C)c3)c2-c2ccc(C#N)cc2)cn1", "group": "inactive"}
{"compound": "CC1(C)O[C@@H]2C[C@H]3[C@@H]4C[C@H](F)C5=CC(=O)C=C[C@]5(C)[C@@]4(F)[C@@H](O)C[C@]3(C)[C@]2(C(=O)CO)O1 [fluocinolone acetonide]", "group": "inactive"}
{"compound": "CCN(CCO)CCCC(C)Nc1ccnc2cc(Cl)ccc12 (stereo unspecified) [hydroxychloroquine]", "group": "inactive"}
{"compound": "COc1ccc(CNC(=O)Nc2ncc([N+](=O)[O-])s2)cc1", "group": "inactive"}

====

# phenotypically active per record follows
Test system: HepG2-TUBA1B-RELA
method description: phenotypically active (imaging signature differs from DMSO and reproducible) at any of 0.3-9 uM (binary (1 = active, 0 = inactive)); higher = active
assay setup: treatment time: 24 h
quantity: phenotypically active

{"molecule": "O=C(COc1cccc2c(=O)[nH]ccc12)c1ccccc1", "quantity": "phenotypically active", "val": 0}
{"molecule": "CC(C)[C@](O)(c1ccc2cc(OC(F)F)c(OC(F)F)cc2c1)c1c[nH]nn1", "quantity": "phenotypically active", "val": 0}
{"molecule": "C[N+]1(C)CCC(=C(c2ccccc2)c2ccccc2)CC1", "quantity": "phenotypically active", "val": 0}
{"molecule": "Cc1cccc(-c2nn(C(=S)Nc3ccccc3)cc2-c2ccnc3ccccc23)n1", "quantity": "phenotypically active", "val": 1}
{"molecule": "c1ccc2c(c1)Cc1c(Nc3ccc4c(c3)OCCO4)n[nH]c1-2", "quantity": "phenotypically active", "val": 1}
{"molecule": "O=C(/C=C/c1ccc(O)cc1)c1ccc(O)cc1O", "quantity": "phenotypically active", "val": 0}
{"molecule": "O=C(O)c1cccc(C(=O)O)n1", "quantity": "phenotypically active", "val": 0}
{"molecule": "N=C(N)NN=Cc1c(Cl)cccc1Cl", "quantity": "phenotypically active", "val": 0}
{"molecule": "COC(=O)C1CC23C=CCN4CCC5(c6ccccc6NC15[C@H]2C)C43 (stereo not given in full) [Vindolinine dichlorhydrate]", "quantity": "phenotypically active", "val": 0}
{"molecule": "CC(=O)Nc1ccc(C(=O)Nc2ccccc2N)cc1", "quantity": "phenotypically active", "val": 1}
